# SUBJECT_OF_TEST: levetiracetam binding site (LBS) (Rattus norvegicus)
# Sequence (Q02563 whole entry): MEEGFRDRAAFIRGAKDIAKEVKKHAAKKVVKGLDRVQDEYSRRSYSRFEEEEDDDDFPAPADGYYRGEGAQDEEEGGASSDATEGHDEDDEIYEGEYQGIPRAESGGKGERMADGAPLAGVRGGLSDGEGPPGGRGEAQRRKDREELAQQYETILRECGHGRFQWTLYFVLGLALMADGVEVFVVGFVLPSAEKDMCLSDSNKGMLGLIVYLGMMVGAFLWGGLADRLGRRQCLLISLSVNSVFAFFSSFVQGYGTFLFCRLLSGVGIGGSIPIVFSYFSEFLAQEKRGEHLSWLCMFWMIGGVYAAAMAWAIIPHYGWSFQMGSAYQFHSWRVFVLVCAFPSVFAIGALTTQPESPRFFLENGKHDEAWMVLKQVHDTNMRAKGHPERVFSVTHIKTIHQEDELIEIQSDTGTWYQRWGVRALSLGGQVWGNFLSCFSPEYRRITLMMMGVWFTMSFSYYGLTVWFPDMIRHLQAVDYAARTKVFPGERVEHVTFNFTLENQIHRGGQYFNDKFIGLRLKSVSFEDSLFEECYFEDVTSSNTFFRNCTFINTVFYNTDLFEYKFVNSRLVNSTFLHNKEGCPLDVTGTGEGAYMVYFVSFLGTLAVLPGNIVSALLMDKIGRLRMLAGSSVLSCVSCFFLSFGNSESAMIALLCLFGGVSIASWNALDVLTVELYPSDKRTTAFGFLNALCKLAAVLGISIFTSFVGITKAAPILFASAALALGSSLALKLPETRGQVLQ
# MEASUREMENT_NOTES: [3H]ucb 30889 binding on crude rat brain membranes (kinetics, saturation, competition)
QUANTITY: Kd (nM)
Number only, in nM; omit the unit.

[Q] Annotate the molecule CC[C@@H](C(N)=O)N1CC(c2cccc(N=[N+]=[N-])c2)CC1=O (stereo partly shown) with its measured Kd.
[A] 42
